PROCEDURE_SUMMARY: NCI Yeast Anticancer Drug Screen. Data for the wt1 strain (AID 149);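 also: 0% = growth of vehicle-treated wt1 cultures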
STUDY_CONDITIONS: S. cerevisiae wt1 strain (SPY 50644) growth inhibition; at 3.7 µM; hits give high values
Compounds without any hit were thinned out: in the full panel of roughly 79,000, 15% have a hit.
PARAMETER: growth inhibition (%)

Cc1cc(-c2cc(C)c(O)c(C(C)(C)C)c2)cc(C(C)(C)C)c1O: -49
CSc1nc(C)c(CCOC(C)=O)c(N=P(c2ccccc2)(c2ccccc2)c2ccccc2)n1: 5
C=C(Cl)COC(=O)Nc1cccc(Cl)c1: -1
Cc1nc2ccccc2nc1NNc1ccccc1: 9
NC1=NNC2(C(N)=N1)c1ccccc1-c1ccccc12: 3
Cn1c(=O)c2c(nc(N)n2C2OC(CO)C(O)C2O)n(C)c1=O (centres undefined): -1
O=C1N=C2SC=C(NC(=S)Nc3ccccc3)N2NC12c1ccccc1-c1ccccc12: 3
O=C(/C=C/c1cc(Cl)cc(Cl)c1O)c1cccc(O)c1: 6
CCCC/C([O-])=C1/C(=O)N(c2ccccc2)N=C1C.CCCC/C([O-])=C1/C(=O)N(c2ccccc2)N=C1C.[Cu+2]: -1
CCN(CC)Cc1cc(Nc2c3ccccc3nc3c2[nH]c2ccccc23)cc(CN(CC)CC)c1O: 2
c1ccc(Cc2cc(-c3ccccc3)n[nH]2)cc1: -10
COC(C(O)CO)C(O)C(O)C(=O)NNc1ccccc1 (centres undefined): 5
CCCCOC(=O)Nc1ccc(C)c(NC(=O)OCCCC)c1: -2
COc1ccc(C(=O)c2ccccc2C(=O)c2ccccc2OC)cc1: 1
O=c1ccc2ccccc2c2ccccc12: 18
C(=Nc1ccc(-c2cc(-c3ccccc3)nc3ccc4ccccc4c23)cc1)c1ccccc1: 24
Cc1cc(C(C)(C)CC(C)(C)C)ccc1O: -22
COc1ccc(/C=C2\NC(=S)N(/C=C3\C(=O)Oc4ccccc4C3=O)C2=O)cc1: 1
CCCCCCSc1ncnc2[nH]ncc12: -2
CCC(=O)c1cc(C(=O)C(=S)SC)cc(C(=O)C(=S)SC)c1: 17
CS(=O)(=O)SCc1ccc([N+](=O)[O-])cc1: 1
CN(C)CCOC1(Cc2ccc(F)cc2)CCC(C(C)(C)C)CC1 (centres undefined): 6
Cc1cc(C)nc(NS(=O)(=O)c2ccc(Nc3c4ccccc4nc4c(C(=O)NCCO)cccc34)cc2)n1: -2
COc1ccc(NC(=O)CC2SC(=Nc3ccccc3C)NC2=O)c([N+](=O)[O-])c1 (centres undefined): -1
CCCCc1ccc(-n2c(C)c(COC(=O)NC)c(COC(=O)NC)c2C)cc1: -44
Cc1cc(O)c(C(C)C)cc1C1(c2cc(C(C)C)c(O)cc2C)OC(=O)c2ccccc21: 2
COc1cc(C2c3cc4c(cc3OC(OC(C)=O)C2C)OCO4)cc(OC)c1OC (centres undefined): -3
O=c1ssc(=Nc2ccccc2)n1-c1ccccc1: -5
Cc1c2cc[n+](Cc3ccc(I)cc3)cc2c(C)c2c1[nH]c1ccccc12: 8
S=C1SCN(C2CCCCC2)CN1C1CCCCC1: -29
CCOC(=O)C(Br)C(Br)c1ccccc1Cl (centres undefined): 7
COc1nc2c(c(=O)n1C)N=C(c1ccccc1)[C@H](C(CC(=O)c1ccccc1)c1ccccc1)C(c1ccccc1)N2 (some centres undefined): -20
Cn1c(-c2ccc(/C=N\N3CCN(/N=C/c4ccc(-c5c[n+]6ccccc6n5C)cc4)CC3)cc2)c[n+]2ccccc12: -13
CCOC(=O)C1=C(C)NC(C)=C(C(=O)OCCNC(=O)c2ccc(N=[N+]=[N-])cc2)C1c1ccccc1C(F)(F)F (centres undefined): 0
CN(C)c1ccc(C2CC(C)(O)Oc3cc4c(cc32)OCO4)cc1 (centres undefined): 5
N#CC(=Nc1ccccc1F)Nc1ccccc1F: -3
c1ccc2[nH]c(-c3cscn3)nc2c1: -3
Cc1ccc(NC(c2ccccc2)c2ccc3cccnc3c2O)cc1 (centres undefined): 4
O/N=C\c1c(O)ccc2ccccc12: -5
C=C1CCC(O)C/C1=C/C=C1\CCCC2(C)C1CCC2C(C)CCCC(C)C (centres undefined): -16
O=C(/C=C(/c1ccccc1)N1CCCCC1)c1ccccc1: 4
COC(=O)C1=C(C(=O)OC)C(C(=O)OC)C(C(=O)OC)C(C(=O)OC)(C(=O)OC)C(C(=O)OC)=C1C(=O)OC (centres undefined): -13
OC(CCNCc1ccccc1)c1ccc2ccccc2c1 (centres undefined): 33
CCCCC(CC)C(=O)[O][Sn]([CH2]CCC)([CH2]CCC)[O]C(=O)C(CC)CCCC (centres undefined): -7

----------
PROCEDURE_SUMMARY: NCI Yeast Anticancer Drug Screen. Data for the bub3 strain (AID 167)
STUDY_CONDITIONS: S. cerevisiae bub3 mutant strain, at 50.0 µM, hits give high values
The panel holds about 79,000 compounds, 15% with a hit somewhere; the sample as a whole holds those more often.
1 means recorded growth inhibition is 70% or above; 0 means it is below 70%.

O=[N+]([O-])c1ccc(N/N=C/Cc2ccccc2)c([N+](=O)[O-])c1: 0
COc1oc(C(=O)NC2CCCCC2)c(-c2ccc(Cl)cc2)c1S(=O)(=O)c1ccccc1: 1
COc1cc(O)c2c(c1O)C(=O)c1cc(C)ncc1C2=O: 1
CC1CC[C@]2(C(=O)O)CCC3(C)C(=CC(=O)C4[C@@]5(C)CCC(=O)C(C)(C)C5CC[C@]43C)[C@@H]2[C@H]1C (stereo not given in full): 1
CCOC(=O)c1[nH]cc(C)c1-c1cccn1-c1ccc(Cl)cc1[N+](=O)[O-]: 0

----------
PROCEDURE_SUMMARY: NCI Yeast Anticancer Drug Screen. Data for the sgs1 mgt1 strain (AID 161);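 also: 0% = growth of cultures given vehicle only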
STUDY_CONDITIONS: S. cerevisiae sgs1 mgt1 strain, at 5.0 µM (retest, dose inferred, filed as 0.5), hits give high values
This is part of a sample that, as a whole, favours compounds with a hit. Of some 79,000 tested, about 15% had one in any assay.
PARAMETER: growth inhibition (%)

CCCCCCC(O)CNCc1ccnc2ccc(OC)cc12 (stereo not drawn): 23
CC(=O)ON=C1C=CC(=C(C#N)c2ccc(Cl)cc2)C=C1: 41
CN(C)/C=C/c1nnc([N+](=O)[O-])s1: -63
COc1cc2ccnc(-c3c4ccccc4c(N)c4c(OC)c(OC)ccc34)c2cc1OC: 24
CCCCCCCCCCCC1N=C(N)NC(CCCO)=C1C(=O)OC (stereo not drawn): 65
Nc1ccn(C2OC(COP(=O)(O)O)C(O)C2O)c(=O)n1 (stereo not drawn): 47
CCCC(=O)Oc1ccc(/C=N/NC(N)=S)nc1: -1
O=C(O)CCCC1CCCc2c1ccc1ccccc21 (stereo not drawn): 13
O=C(O)C1CC(c2ccccc2)=NN1c1ccccc1 (stereo not drawn): -12
Clc1ccc(NCNC2Nc3ccccc3N2)cc1Cl: 18
O/N=C\c1c(O)ccc2ccccc12: -6
c1ccc2cc(NCNc3ccc4ccccc4c3)ccc2c1: 0
CC(C)CN(CC(C)C)C(=O)c1ccc(Cl)c(Cl)c1: -3

----------
PROCEDURE_SUMMARY: NCI Yeast Anticancer Drug Screen. Data for the rad18 strain (AID 177)
STUDY_CONDITIONS: S. cerevisiae rad18 mutant growth inhibition; at 1.2 µM; hits give high values
Compounds without any hit were thinned out: in the full panel of roughly 79,000, 15% have a hit.
PARAMETER: growth inhibition (%)

Cc1ccc2c3ccc4c(c3n(C)c2c1)C(=O)C=CC4=O: 4
O=C1N=C2SC=C(NC(=S)Nc3ccccc3)N2NC12c1ccccc1-c1ccccc12: 14
COc1ccc2[nH]cc([C@@H]3C4CCC(C4)[C@H]3NCc3cccc(CN[C@H]4C5CCC(C5)[C@@H]4c4c[nH]c5ccc(OC)cc45)c3)c2c1: -19
CCc1cc(O)c(Cl)c(C)c1Cl: -14
Cc1cc(S(=O)(=O)Nc2nnc3cnc4ccccc4n23)c(S)cc1Cl: -6
CN(C)c1ccc2c(SCC(=O)OCC(=O)[C@@]3(O)CC[C@H]4[C@@H]5CCC6=CC(=O)C=C[C@]6(C)[C@H]5C(=O)C[C@@]43C)c3ccc(N(C)C)cc3nc2c1: -9

----------
Recorded growth inhibition for the following molecules
PROCEDURE_SUMMARY: NCI Yeast Anticancer Drug Screen. Data for the rad14 strain (AID 159);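 also: 0% = growth of vehicle-treated control cultures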
STUDY_CONDITIONS: S. cerevisiae rad14 strain growth inhibition; at 1.2 µM; hits give high values
About 79,000 compounds went through this panel and 15% of them were active in at least one assay; those are over-represented in the sample as a whole.
PARAMETER: growth inhibition (%)

O=C(C[n+]1ccc2ccccc2c1)c1ccc2ccccc2c1: -45
C[Si](C)(C)/C=C/CCNC(C#N)c1ccccc1 (stereo unspecified): -6
O=C(Oc1ccc2c(c1)CN(Cc1ccccc1)CO2)c1ccccc1: 4
O/N=C\c1c(O)ccc2ccccc12: -1
Cc1cc(S(=O)(=O)Nc2nnc3cnc4ccccc4n23)c(S)cc1Cl: -1
CC1=C(SCc2ccccc2)C(=O)c2ccccc2C1=O: -32
O=C(NCCCNCCN1C(=O)c2cccc3cc([N+](=O)[O-])cc(c23)C1=O)c1cc(-c2ccccc2)nc2ccccc12: -1
CN(C)CCOC1(Cc2ccc(F)cc2)CCC(C(C)(C)C)CC1 (stereo unspecified): 6
CCOC(=O)CC1(C(=O)OCC)c2[nH]c3ccccc3c2CCN1Cc1ccccc1 (stereo unspecified): 1
Cc1nc2c(Br)cc(Br)cc2c(=O)n1-c1ccccc1NC1OCC(O)C(O)C1O (stereo unspecified): 2
CCOC(=N)c1ccc(O)c(OC)c1: -2
CCN(CC)CCNc1ccc2ncn3c4cc(OC)c(OC)c(=O)c4c(O)c1c23: -1
CC(=O)Nc1ccc(/C=C/[N+](=O)[O-])cc1: 2
Clc1ccc(NCNC2Nc3ccccc3N2)cc1Cl: 0
Cc1cc(C)c(NC(=S)NC(=O)c2ccccc2)cc1C: -40
CC(O)=NC(Cc1ccc2ccccc2c1)C(O)=NC(Cc1ccc(Cl)cc1)C(O)=NC(Cc1c[nH]c2ccccc12)C(O)=NC(CO)C(O)=NC(Cc1ccc(O)cc1)C(O)=NC(CCCN=C(N)N)C(O)=NC(CC(C)C)C(O)=NC(CCCN=C(N)N)C(=O)N1CCCC1C(O)=NC(C)C(=N)O (stereo unspecified): -5
CCOC(=O)[C@H]1Nc2ccc(OC)cc2C2c3ccccc3CC21 (stereo partly specified): -54
COc1ccc(C2C3=C(COC3=O)OC(C)(C)Oc3cc4c(cc32)OCO4)cc1OC (stereo unspecified): 11
O=C(CC(C(=O)O)N1CCOCC1)c1ccccc1 (stereo unspecified): -3
CCCCOC(=O)Nc1ccc(C)c(NC(=O)OCCCC)c1: -3
CCCCCCN(CCCCCC)CC(O)c1ccnc2ccc(OC)cc12 (stereo unspecified): -2
